Data provenance is patent US12077503B2.

tested on: corn (Zea mays); assay: Test A postemergence; type: in vivo; settings: Zea mays, post-emergence, 240 h, 125 g ai/ha, postemergence, visual injury rating after approximately 10 d; read-out: Corn plant response rating (0 to 100 scale, 0 no effect, 100 complete control)
outcome.measure: plant injury at 125 g/ha (%)
Return type: number; implicit unit %.

# count of solved cases: 3
{"columns": ["structure.smiles", "tested.on", "outcome.measure", "value.unit", "readout.number"],
 "data": [
  ["O=C1NC[C@H](c2cc(F)c(C(F)(F)F)c(F)c2)[C@H]1C(=O)Nc1ccccc1F", "corn (Zea mays)", "plant injury at 125 g/ha", "%", 60],
  ["COc1c(F)ccc([C@H]2CNC(=O)[C@@H]2C(=O)Nc2ccc(F)cc2F)c1Cl", "corn (Zea mays)", "plant injury at 125 g/ha", "%", 0],
  ["COc1cc([C@H]2CN(C)C(=O)[C@@H]2C(=O)Nc2ccccc2F)cc(C(F)(F)F)c1", "corn (Zea mays)", "plant injury at 125 g/ha", "%", 70]
]}

Please find the next compound below.
Query: Please give the measured plant injury at 125 g/ha for this compound: `COc1c(F)ccc([C@H]2CN(C)C(=O)[C@@H]2C(=O)Nc2ccc(F)c(F)c2F)c1Cl`
Reply: 80

---

tested on: oilseed rape (Brassica napus); test: Test C preemergence; assay type: in vivo; conditions: 31 g ai/ha, 0 is no effect, 100 is complete control
outcome.measure: Plant response rating (scale of 0 to 100), Oilseed Rape
Keep it simple and answer with nothing but the number.

# count of solved cases: 3
{"columns": ["compound", "readout.number"],
 "data": [
  ["CN1CC(c2ccc(F)c(F)c2)C(C(=O)Nc2ccccc2S(C)(=O)=O)C1=O (stereo not shown) [Compound 640]", 0],
  ["CN1CC(c2cccc(OC(F)F)c2)C(C(=O)Nc2ccc(F)cc2F)C1=O (stereo not shown) [Compound 617]", 30],
  ["CC(C)Oc1cccc(C2CN(C)C(=O)C2C(=O)Nc2cccc(F)c2F)c1 (stereo not shown) [Compound 651]", 75]
]}

Query: Item: Cc1ccc(C2CN(C)C(=O)C2C(=O)Nc2ccccc2S(C)(=O)=O)cc1 (stereo not shown) [Compound 663] Test system: oilseed rape (Brassica napus) Read-out: Plant response rating (scale of 0 to 100), Oilseed Rape Value: ?
Reply: 30

---

system: blackgrass (Alopecurus myosuroides); assay: Test A postemergence; type: in vivo; details: Alopecurus myosuroides, post-emergence, 240 h, 500 g ai/ha, postemergence; 0 to 100 scale, 0 is no effect, 100 is complete control; read-out: Blackgrass plant response rating
outcome.measure: pest or weed control at 500 g/ha (%)
Return type: number; implicit unit %.

{"columns": ["compound", "tested.on", "pest or weed control at 500 g/ha / %"],
 "data": [
  ["CN1C[C@H](c2cc(F)cc(F)c2)[C@@H](C(=O)Nc2cnccc2Cl)C1=O", "blackgrass (Alopecurus myosuroides)", 0],
  ["Cc1ccc([C@H]2CCN(C)C(=O)[C@@H]2C(=O)Nc2cccc(Cl)c2F)cc1", "blackgrass (Alopecurus myosuroides)", 50],
  ["CN1CC[C@H](c2ccc(C(F)(F)F)cc2)[C@@H](C(=O)Nc2ccccc2C(F)(F)F)C1=O", "blackgrass (Alopecurus myosuroides)", 0],
  ["CN1CC(c2cccc(Br)c2)C(C(=O)Nc2ccccc2F)C1=O (stereo not shown)", "blackgrass (Alopecurus myosuroides)", 50]
]}

Query: Item: `Cc1cccc([C@H]2CN(C)C(=O)[C@@H]2C(=O)Nc2ccc(F)c(F)c2F)c1` Test system: blackgrass (Alopecurus myosuroides) Read-out: pest or weed control at 500 g/ha Value: ?
Reply: 40

Query: Try `CN1C[C@H](c2cc(C(F)F)cs2)[C@@H](C(=O)Nc2ccccc2F)C1=O` next.
Reply: 50

Query: Try `O=C1NC[C@H](c2ccc3c(c2)OCO3)[C@H]1C(=O)Nc1cccc(F)c1C(F)(F)F` next.
Reply: 20

---

System: redroot pigweed (Amaranthus retroflexus)
Assay: Test G Pre-Emergence Protocol
Format: in vivo
Conditions: Amaranthus retroflexus, pre-emergence, 312 h, 62.5 g ai/ha, evaluated after 13 days, 100=total damage to plant, 0=no damage to plant, read-out: plant damage rating, Pigweed, Redroot
Text: Seeds of corn (Zea mays), giant foxtail (Setaria faberi), barnyardgrass (Echinochloa crus-galli), ivy-leaved morning glory (Ipomoea hederacea), redroot pigweed (Amaranthus retroflexus) and velvetleaf (Abutilon theophrasti) were sown in standard soil in pots. […]
outcome.measure: pest or weed control at 62.5 g/ha (%)
Return type: number; implicit unit %.

# count of solved cases: 5
{"columns": ["compound", "value.unit", "pest or weed control at 62.5 g/ha"],
 "data": [
  ["Cc1c(Cl)cccc1NC(=O)[C@@H]1C(=O)N(C)C[C@H]1c1ccc(C(F)(F)F)cc1 (racemic)", "%", 20],
  ["Cc1cccc(NC(=O)[C@H]2C(=O)N(C)C[C@@H]2c2ccc(C(F)(F)F)cc2)c1C#N (racemic)", "%", 20],
  ["CSc1nnc(NC(=O)[C@@H]2C(=O)N(C)C[C@H]2c2ccc(C(F)(F)F)cc2)[nH]1 (racemic)", "%", 0],
  ["CN1C[C@H](c2ccc(C(F)(F)F)cc2)[C@@H](C(=O)Nc2ccc(F)c(F)c2)C1=O (racemic)", "%", 20],
  ["CN1C[C@H](c2ccc(C(C)(C)C)cc2)[C@@H](C(=O)Nc2ccccc2F)C1=O (racemic)", "%", 0]
]}

Query: Please give the measured pest or weed control at 62.5 g/ha for this compound: COC(=O)c1nccc(NC(=O)[C@@H]2C(=O)N(C)C[C@H]2c2ccc(C(F)(F)F)cc2)n1 (racemic)
Reply: 0

Query: Try CN1C[C@@H](c2ccc(C(F)(F)F)cc2)[C@H](C(=O)Nc2cccc(C(F)(F)F)n2)C1=O (racemic) next.
Reply: 0

Query: Try Cc1cc(NC(=O)[C@@H]2C(=O)N(C)C[C@H]2c2ccc(C(F)(F)F)cc2)on1 (racemic) next.
Reply: 0

Query: Try CN1C[C@@H](c2ccc(C(F)(F)F)cc2)[C@H](C(=O)Nc2cccc(F)c2)C1=O (racemic) next.
Reply: 10

Query: Try Cc1cnc(NC(=O)[C@@H]2C(=O)N(C)C[C@H]2c2ccc(C(F)(F)F)cc2)cn1 (racemic) next.
Reply: 0

Query: Try CN1C[C@@H](c2ccc(C(F)(F)F)nc2)[C@H](C(=O)Nc2cccc(F)n2)C1=O (racemic) next.
Reply: 0

Query: Try CN1C[C@@H](c2ccc(C(F)(F)F)cc2)[C@H](C(=O)Nc2cc(C(C)(C)C)[nH]n2)C1=O (racemic) next.
Reply: 0

Query: Try CN1C[C@H](c2ccc(C(F)(F)F)cc2)[C@@H](C(=O)Nc2ncccc2C#N)C1=O (racemic) next.
Reply: 0

Query: Try CSc1nc(NC(=O)[C@@H]2C(=O)N(C)C[C@H]2c2ccc(C(F)(F)F)cc2)n[nH]1 (racemic) next.
Reply: 0

Query: Try CN1C[C@@H](c2ccc(C(F)(F)F)cc2)[C@H](C(=O)Nc2cccc3c2CCC3)C1=O (racemic) next.
Reply: 0

Query: Try CN1C[C@H](c2ccc(F)c(C#N)c2)[C@@H](C(=O)Nc2ccccc2F)C1=O (racemic) next.
Reply: 0

Query: Try CN1C[C@@H](c2ccc(C(F)(F)F)cc2)[C@H](C(=O)Nc2cccnn2)C1=O (racemic) next.
Reply: 0

Query: Try `CN1C[C@H](c2ccc(Cl)cc2)[C@@H](C(=O)Nc2cccc(F)n2)C1=O` next.
Reply: 30

Query: Try CN1C[C@@H](c2ccc(C(F)(F)F)cc2)[C@H](C(=O)Nc2cn(C)nn2)C1=O (racemic) next.
Reply: 0

Query: Try CN1C[C@@H](c2ccc(C(F)(F)F)cc2)[C@H](C(=O)Nc2ccnc(Cl)c2)C1=O (racemic) next.
Reply: 0

Query: Try Cc1nonc1NC(=O)[C@@H]1C(=O)N(C)C[C@H]1c1ccc(C(F)(F)F)cc1 (racemic) next.
Reply: 0

Query: Try CN1C[C@@H](c2cncc(F)c2)[C@H](C(=O)Nc2cccc(F)c2F)C1=O (racemic) next.
Reply: 0

Query: Try CN1C[C@@H](c2ccc(C(F)(F)F)cc2)[C@H](C(=O)Nc2cnccc2C(F)(F)F)C1=O (racemic) next.
Reply: 40

---

test system: giant foxtail (Setaria faberii); assay: Test A postemergence; type: in vivo; settings: 500 g ai/ha, postemergence; 0 to 100 scale, 0 no effect, 100 complete control
Reported Plant response rating, Foxtail, Giant is given for each of the following compounds.
Keep it simple and answer with nothing but the number.

Query: Please give the measured Plant response rating, Foxtail, Giant for this compound: CN1CC(c2ccc(C(F)(F)F)c(F)c2)C(C(=O)Nc2ccccc2F)C1=O (centres unmarked)
Reply: 90

Query: Try Cc1ccc(C2CN(C)C(=O)C2C(=O)Nc2ccccc2F)cc1F (centres unmarked) next.
Reply: 90

Query: Try Nc1cccc(C2CNC(=O)C2C(=O)Nc2cccc(F)c2F)c1 (centres unmarked) next.
Reply: 0

Query: Try Cc1ccc(C2CNC(=O)C2C(=O)Nc2ccc(F)c(C)c2F)cc1F (centres unmarked) next.
Reply: 70

Query: Try O=C1NCC(c2ccc(F)c(F)c2)C1C(=O)Nc1n[nH]cc1Br (racemic) next.
Reply: 0
